Tested on: NCI-H1623;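 also: cell viability assay used as the read-out for growth inhibition of NCI-H1623 cells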
ASSAY NOTES: cells
Assay type: functional, cell-based
APPLIED CONDITIONS: Homo sapiens
Description: SANGER: Inhibition of human NCI-H1623 cell growth in a cell viability assay.
pIC50: −log10 of the molar value.
Here, each record is paired with measured pIC50 data.
READOUT KIND: pIC50

1. CC[C@@]1(O)C(=O)OCc2c1cc1n(c2=O)Cc2cc3ccccc3nc2-1
9.13
2. Fc1cc(-c2cc[nH]/c(=N/c3ccc(-n4cnc(N5CCOCC5)n4)cc3)n2)cc(N2CCOCC2)c1
5.89
3. CO[C@@]12[C@H](COC(N)=O)C3=C(C(=O)C(C)=C(N)C3=O)N1C[C@@H]1N[C@@H]12
5.99

* * *

Tested on: MC116;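 also: growth inhibition of MC116 cells, read out with a cell viability assay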
ASSAY NOTES: cells
Format: functional, cell-based
APPLIED CONDITIONS: Homo sapiens
Description: SANGER: Inhibition of human MC116 cell growth in a cell viability assay.
Here, each record is paired with measured IC50 data.
READOUT KIND: IC50

1) C/C(O)=C(\C#N)C(=O)Nc1cc(Br)ccc1Br
> 16 µM
2) Fc1cc(-c2cc[nH]/c(=N/c3ccc(-n4cnc(N5CCOCC5)n4)cc3)n2)cc(N2CCOCC2)c1
0.411 µM
3) COc1cc(Nc2c(C#N)cnc3cc(OCCCN4CCN(C)CC4)c(OC)cc23)c(Cl)cc1Cl
> 2 µM
4) Cn1cc(/C=C2\C(=O)Nc3cccnc32)c2ccccc21
> 2 µM
5) CCNC(=O)c1noc(-c2cc(C(C)C)c(O)cc2O)c1-c1ccc(CN2CCOCC2)cc1
> 0.256 µM
6) Cc1[nH]c(/C=C2\C(=O)Nc3ccc(S(=O)(=O)Cc4c(Cl)cccc4Cl)cc32)c(C)c1C(=O)N1CCC[C@@H]1CN1CCCC1
> 2 µM
7) NC(=O)c1ncn([C@@H]2O[C@H](COP(=O)(O)O)[C@@H](O)[C@H]2O)c1N
1290 µM

* * *

System: G-361
ASSAY NOTES: cells
Assay type: functional, cell-based
APPLIED CONDITIONS: Homo sapiens
READOUT KIND: IC50

1. CC(C)=CC[C@@H](O)C1=CC(=O)c2c(O)ccc(O)c2C1=O [SHIKONIN]
473 nM
2. O=c1cc(N2CCOCC2)oc2c(-c3cccc4c3sc3ccccc34)cccc12
> 2000 nM
3. CC[C@@]1(O)C(=O)OCc2c1cc1n(c2=O)Cc2cc3ccccc3nc2-1 [CAMPTOTHECIN]
> 100 nM
4. N#C/C(=C1/Nc2ccccc2S1)c1ccnc(NCCc2cccnc2)n1
> 8000 nM
5. C[C@]12O[C@H](C[C@]1(O)CO)n1c3ccccc3c3c4c(c5c6ccccc6n2c5c31)CNC4=O [LESTAURTINIB]
221 nM
6. O=c1[nH]c2ccccc2n1C1CCN(Cc2ccc(-c3nc4cc5[nH]cnc5cc4nc3-c3ccccc3)cc2)CC1
> 2560 nM

* * *

System: GDM-1;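 also: cell viability readout used to measure growth inhibition of human GDM-1 cells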
ASSAY NOTES: cells
Assay type: functional, cell-based
APPLIED CONDITIONS: Homo sapiens
Description: SANGER: Inhibition of human GDM-1 cell growth in a cell viability assay.
pIC50: −log10 of the molar value.
READOUT KIND: pIC50

1. CO[C@@]12[C@H](COC(N)=O)C3=C(C(=O)C(C)=C(N)C3=O)N1C[C@@H]1N[C@@H]12
6.42
2. Fc1cc(-c2cc[nH]/c(=N/c3ccc(-n4cnc(N5CCOCC5)n4)cc3)n2)cc(N2CCOCC2)c1
6.69
3. CCNC(=O)c1noc(-c2cc(C(C)C)c(O)cc2O)c1-c1ccc(CN2CCOCC2)cc1
8.08

* * *

System: MDA-MB-468
ASSAY NOTES: cells
Format: functional, cell-based
APPLIED CONDITIONS: Homo sapiens
Description: SANGER: Inhibition of human MDA-MB-468 cell growth in a cell viability assay.
READOUT KIND: IC50

1. CC(O)(CS(=O)(=O)c1ccc(F)cc1)C(=O)Nc1ccc(C#N)c(C(F)(F)F)c1 (stereo unspecified) [BICALUTAMIDE]
> 1020 nM

* * *

Test system: VM-CUB-1;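 also: cell viability assay measuring growth inhibition of the human VM-CUB-1 cell line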
ASSAY NOTES: cells
Format: functional, cell-based
APPLIED CONDITIONS: Homo sapiens
Description: SANGER: Inhibition of human VM-CUB-1 cell growth in a cell viability assay.
READOUT KIND: IC50

1. CC(=O)c1c(C)c2cnc(Nc3ccc(N4CCNCC4)cn3)nc2n(C2CCCC2)c1=O
> 4000 nM
2. C[C@]12O[C@H](C[C@]1(O)CO)n1c3ccccc3c3c4c(c5c6ccccc6n2c5c31)CNC4=O
651 nM
3. CC[C@@]1(O)C(=O)OCc2c1cc1n(c2=O)Cc2cc3ccccc3nc2-1
2.21 nM
4. Cn1c(=O)n(-c2ccc(C(C)(C)C#N)cc2)c2c3cc(-c4cnc5ccccc5c4)ccc3ncc21
33.4 nM
5. C[C@]1(c2nc3c(C(N)=O)cccc3[nH]2)CCCN1
> 5000 nM
6. CC[C@]1(O)C[C@@H]2CN(CCc3c([nH]c4ccccc34)[C@@](C(=O)OC)(c3cc4c(cc3OC)N(C)[C@H]3[C@@](O)(C(=O)OC)[C@H](OC(C)=O)[C@]5(CC)C=CCN6CC[C@]43[C@@H]65)C2)C1
4.28 nM
7. CC(O)(CS(=O)(=O)c1ccc(F)cc1)C(=O)Nc1ccc(C#N)c(C(F)(F)F)c1 (centres undefined) [BICALUTAMIDE]
> 1020 nM
8. O=c1[nH]c2ccccc2n1C1CCN(Cc2ccc(-c3nc4cc5[nH]cnc5cc4nc3-c3ccccc3)cc2)CC1
> 2560 nM
9. CCCS(=O)(=O)Nc1ccc(F)c(C(=O)c2c[nH]c3ncc(Cl)cc23)c1F
> 10000 nM

* * *

Here, each record is paired with measured pIC50 data.
Test system: NUGC-3
ASSAY NOTES: cells
Assay type: functional, cell-based
APPLIED CONDITIONS: Homo sapiens
Description: SANGER: Inhibition of human NUGC-3 cell growth in a cell viability assay.
pIC50: −log10 of the molar value.
READOUT KIND: pIC50

1) CC[C@]1(O)C[C@@H]2CN(CCc3c([nH]c4ccccc34)[C@@](C(=O)OC)(c3cc4c(cc3OC)N(C)[C@H]3[C@@](O)(C(=O)OC)[C@H](OC(C)=O)[C@]5(CC)C=CCN6CC[C@]43[C@@H]65)C2)C1 [VINBLASTINE]
8.46
2) CCNC(=O)c1noc(-c2cc(C(C)C)c(O)cc2O)c1-c1ccc(CN2CCOCC2)cc1 [LUMINESPIB]
7.32
3) CC(=O)c1c(C)c2cnc(Nc3ccc(N4CCNCC4)cn3)nc2n(C2CCCC2)c1=O [PALBOCICLIB]
5.55
4) CC[C@@]1(O)C(=O)OCc2c1cc1n(c2=O)Cc2cc3ccccc3nc2-1 [CAMPTOTHECIN]
8.50
5) CO[C@@]12[C@H](COC(N)=O)C3=C(C(=O)C(C)=C(N)C3=O)N1C[C@@H]1N[C@@H]12 [MITOMYCIN]
7.77

* * *

Here, each record is paired with measured IC50 data.
Tested on: MDA-MB-134-VI
ASSAY NOTES: cells
Assay type: functional, cell-based
APPLIED CONDITIONS: Homo sapiens
Description: SANGER: Inhibition of human MDA-MB-134-VI cell growth in a cell viability assay.
READOUT KIND: IC50

1) N#C/C(=C1/Nc2ccccc2S1)c1ccnc(NCCc2cccnc2)n1
> 8000 nM
2) CC(O)(CS(=O)(=O)c1ccc(F)cc1)C(=O)Nc1ccc(C#N)c(C(F)(F)F)c1 (stereo unspecified) [BICALUTAMIDE]
> 1020 nM
3) CCNc1cc(N[C@H]2CC[C@@H](O)CC2)nc(Nc2ccc3c(ccn3Cc3ccccc3)c2)n1
> 5120 nM
4) O=c1[nH]c2ccccc2n1C1CCN(Cc2ccc(-c3nc4cc5[nH]cnc5cc4nc3-c3ccccc3)cc2)CC1
> 2560 nM
5) COc1cc(C)c(Sc2cnc(NC(=O)c3ccc(CNC(C)C(C)(C)C)cc3)s2)cc1C(=O)N1CCN(C(C)=O)CC1 (stereo unspecified)
> 10200 nM
6) CC(C)=CC[C@@H](O)C1=CC(=O)c2c(O)ccc(O)c2C1=O
709 nM

* * *

Tested on: NCI-H209;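 also: growth inhibition of human NCI-H209 cells, measured by a cell viability assay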
ASSAY NOTES: cells
Assay type: functional, cell-based
APPLIED CONDITIONS: Homo sapiens
Description: SANGER: Inhibition of human NCI-H209 cell growth in a cell viability assay.
pIC50: −log10 of the molar value.
READOUT KIND: pIC50

1. Cn1c(=O)n(-c2ccc(C(C)(C)C#N)cc2)c2c3cc(-c4cnc5ccccc5c4)ccc3ncc21
7.76
2. COc1cc(Nc2c(C#N)cnc3cc(OCCCN4CCN(C)CC4)c(OC)cc23)c(Cl)cc1Cl
6.39
3. C[C@]12O[C@H](C[C@]1(O)CO)n1c3ccccc3c3c4c(c5c6ccccc6n2c5c31)CNC4=O
7.44
4. CC[C@]1(O)C[C@@H]2CN(CCc3c([nH]c4ccccc34)[C@@](C(=O)OC)(c3cc4c(cc3OC)N(C)[C@H]3[C@@](O)(C(=O)OC)[C@H](OC(C)=O)[C@]5(CC)C=CCN6CC[C@]43[C@@H]65)C2)C1
7.88

* * *

Test system: NCI-H2452
ASSAY NOTES: cells
Assay type: functional, cell-based
APPLIED CONDITIONS: Homo sapiens
Description: SANGER: Inhibition of human NCI-H2452 cell growth in a cell viability assay.
Here, each record is paired with measured IC50 data.
READOUT KIND: IC50

1. C/C(O)=C(\C#N)C(=O)Nc1cc(Br)ccc1Br
> 16 µM
2. C[C@]12O[C@H](C[C@]1(O)CO)n1c3ccccc3c3c4c(c5c6ccccc6n2c5c31)CNC4=O
1.54 µM
3. CCCS(=O)(=O)Nc1ccc(F)c(C(=O)c2c[nH]c3ncc(Cl)cc23)c1F
> 10 µM
